# targetSystem: CYP2A6 (Homo sapiens)
# Sequence (P11509 whole entry): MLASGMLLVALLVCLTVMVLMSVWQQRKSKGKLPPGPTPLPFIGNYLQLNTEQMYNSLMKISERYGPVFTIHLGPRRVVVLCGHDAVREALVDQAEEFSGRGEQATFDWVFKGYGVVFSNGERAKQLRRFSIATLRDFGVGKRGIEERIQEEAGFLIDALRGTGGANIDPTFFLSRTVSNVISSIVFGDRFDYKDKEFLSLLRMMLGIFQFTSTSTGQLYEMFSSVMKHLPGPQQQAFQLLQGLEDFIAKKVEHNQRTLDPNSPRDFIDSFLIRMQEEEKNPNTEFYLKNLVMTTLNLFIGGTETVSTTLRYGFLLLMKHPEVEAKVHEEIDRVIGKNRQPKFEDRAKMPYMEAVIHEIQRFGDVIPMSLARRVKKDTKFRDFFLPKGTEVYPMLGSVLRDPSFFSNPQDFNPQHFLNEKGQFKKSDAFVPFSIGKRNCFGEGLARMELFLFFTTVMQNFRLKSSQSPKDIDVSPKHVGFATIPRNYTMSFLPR
# assayOverview: Inhibition of CYP2A6-mediated coumarin 7-hydroxylase in ultrapooled human liver microsomes
# Type: in vitro ADME
# Procedure: The inhibitory potentials (IC50 values) of APINACA and typical CYP inhibitors on CYP 1A2, 2A6, 2C8, 2C9, 2C19, 2D6, and 3A4 activities in pooled human liver microsomes were evaluated following our previous method using a cocktail of CYP substrates, followed by LC–MS/MS [43]. […] After 3 min of preincubation at 37 °C, the reaction mixtures were incubated for 15 min at 37 °C with the addition of NADPH in a shaking water bath. […] Aliquots (5 μL) of the diluted supernatants were analyzed by LC–MS/MS. […]
pIC50: −log10 of the molar value.
assayReadout: pIC50

If you can, please state the reported pIC50 value of CCCCCn1nc(C(=O)NC23CC4CC(CC(C4)C2)C3)c2ccccc21 .
< 4.00

###

# targetSystem: UGT1A4 (Homo sapiens, UniProt P22310)
# Sequence (P22310 29-534): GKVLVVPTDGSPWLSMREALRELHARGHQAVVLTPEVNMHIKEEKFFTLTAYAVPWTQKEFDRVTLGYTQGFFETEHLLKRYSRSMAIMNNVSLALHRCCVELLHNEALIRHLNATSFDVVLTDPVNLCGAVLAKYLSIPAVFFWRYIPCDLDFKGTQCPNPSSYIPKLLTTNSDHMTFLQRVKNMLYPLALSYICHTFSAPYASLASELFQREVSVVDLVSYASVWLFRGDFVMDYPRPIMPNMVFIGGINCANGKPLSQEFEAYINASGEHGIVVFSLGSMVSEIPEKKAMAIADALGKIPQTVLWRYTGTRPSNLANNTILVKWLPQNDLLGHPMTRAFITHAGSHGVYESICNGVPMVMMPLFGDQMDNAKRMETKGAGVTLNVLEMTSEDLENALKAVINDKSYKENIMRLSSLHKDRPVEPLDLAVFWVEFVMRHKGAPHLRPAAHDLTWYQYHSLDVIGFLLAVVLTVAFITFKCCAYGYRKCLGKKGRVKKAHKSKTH
# assayOverview: Inhibition of UGT1A4-catalyzed trifluoperazine N-glucuronidation in human liver microsomes
# Procedure: The inhibitory effect of APINACA and typical UGT inhibitors on UGT1A1, UGT1A3, UGT1A4, UGT1A6, UGT1A9, and UGT2B7 were evaluated following our previous method by LC–MS/MS after incubation of ultrapooled human liver microsomes with a cocktail of UGT substrates. […] The reactions were initiated by adding UDPGA, and the incubation continued for 60 min at 37 °C in a shaking water bath. […] Next, 50 μL of each supernatant of A and B set was mixed, and aliquots (5 μL) were analyzed by LC–MS/MS. […]
pIC50: −log10 of the molar value.
assayReadout: pIC50

Please tell me: pIC50 of CCCCCn1nc(C(=O)NC23CC4CC(CC(C4)C2)C3)c2ccccc21 , system UGT1A4 (Homo sapiens, UniProt P22310)?
< 4.00

###

# targetSystem: UniProt P10635
# Sequence (P10635 whole entry): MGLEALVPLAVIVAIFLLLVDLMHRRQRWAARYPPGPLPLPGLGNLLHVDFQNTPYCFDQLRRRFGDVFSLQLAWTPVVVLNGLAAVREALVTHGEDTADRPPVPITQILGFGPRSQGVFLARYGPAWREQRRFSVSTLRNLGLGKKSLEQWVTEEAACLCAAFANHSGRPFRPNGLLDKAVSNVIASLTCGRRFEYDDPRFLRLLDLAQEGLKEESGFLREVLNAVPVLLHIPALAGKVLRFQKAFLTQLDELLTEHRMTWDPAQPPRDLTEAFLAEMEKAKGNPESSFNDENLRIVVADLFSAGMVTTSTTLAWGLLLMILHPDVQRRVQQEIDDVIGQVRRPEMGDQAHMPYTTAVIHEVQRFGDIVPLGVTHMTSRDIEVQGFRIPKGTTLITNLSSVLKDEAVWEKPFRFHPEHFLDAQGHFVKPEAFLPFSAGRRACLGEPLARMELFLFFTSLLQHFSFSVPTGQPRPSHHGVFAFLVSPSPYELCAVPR
# assayOverview: Inhibition of CYP2D6-mediated bufuralol 1′-hydroxylase in ultrapooled human liver microsomes
# Assay type: in vitro ADME
assayReadout: IC50

If you can, please state the reported IC50 value of CCCCCn1nc(C(=O)NC23CC4CC(CC(C4)C2)C3)c2ccccc21 .
> 100 µM

###

# targetSystem: UGT2B7 (Homo sapiens, UniProt P16662)
# Sequence (P16662 24-529): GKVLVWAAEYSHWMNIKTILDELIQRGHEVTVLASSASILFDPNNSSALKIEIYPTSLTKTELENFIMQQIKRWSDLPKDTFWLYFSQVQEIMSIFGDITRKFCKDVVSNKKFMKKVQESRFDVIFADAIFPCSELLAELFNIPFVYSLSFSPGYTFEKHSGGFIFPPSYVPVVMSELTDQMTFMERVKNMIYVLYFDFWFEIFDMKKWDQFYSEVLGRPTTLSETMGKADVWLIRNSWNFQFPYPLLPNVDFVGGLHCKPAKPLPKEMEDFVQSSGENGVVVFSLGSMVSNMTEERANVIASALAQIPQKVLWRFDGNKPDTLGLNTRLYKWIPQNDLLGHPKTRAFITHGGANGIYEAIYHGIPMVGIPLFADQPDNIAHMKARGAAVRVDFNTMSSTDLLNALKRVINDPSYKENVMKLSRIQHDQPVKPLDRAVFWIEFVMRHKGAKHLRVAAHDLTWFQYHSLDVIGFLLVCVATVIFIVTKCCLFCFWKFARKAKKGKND
# assayOverview: Inhibition of UGT2B7-catalyzed naloxone 3-β-D-glucuronidation in human liver microsomes
# Type: in vitro ADME
assayReadout: IC50

If you can, please state the reported IC50 value of CCCCCn1nc(C(=O)NC23CC4CC(CC(C4)C2)C3)c2ccccc21 .
> 100 µM

###

# targetSystem: UGT1A6 (Homo sapiens, UniProt P19224)
# Sequence (P19224 27-532): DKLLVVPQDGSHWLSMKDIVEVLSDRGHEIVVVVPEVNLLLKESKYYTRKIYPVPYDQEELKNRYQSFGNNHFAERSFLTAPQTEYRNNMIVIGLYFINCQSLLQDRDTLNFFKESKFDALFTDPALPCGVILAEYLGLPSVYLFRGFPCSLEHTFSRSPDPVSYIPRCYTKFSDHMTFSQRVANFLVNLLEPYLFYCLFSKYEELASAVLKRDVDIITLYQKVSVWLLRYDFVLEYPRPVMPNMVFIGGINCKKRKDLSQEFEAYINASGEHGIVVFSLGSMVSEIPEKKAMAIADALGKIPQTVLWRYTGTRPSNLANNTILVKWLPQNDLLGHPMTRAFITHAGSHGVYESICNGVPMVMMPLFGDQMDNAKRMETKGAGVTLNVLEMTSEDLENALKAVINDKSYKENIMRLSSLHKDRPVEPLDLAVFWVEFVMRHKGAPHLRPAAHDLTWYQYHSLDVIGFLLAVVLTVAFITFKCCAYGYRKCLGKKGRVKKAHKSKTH
# assayOverview: Inhibition of UGT1A6-catalyzed N-acetylserotonin glucuronidation in human liver microsomes
# statedConditions: read-out: IC50 UGT1A6 N-acetylserotonin glucuronidation, with 30-min preincubation; pooled human liver microsomes; 30-min preincubation with UDPGA (○)
pIC50: −log10 of the molar value.
assayReadout: pIC50

If you can, please state the reported pIC50 value of CCCCCn1nc(C(=O)NC23CC4CC(CC(C4)C2)C3)c2ccccc21 .
< 4.00

###

# targetSystem: CYP2C19 (Homo sapiens)
# Sequence (P33261 whole entry): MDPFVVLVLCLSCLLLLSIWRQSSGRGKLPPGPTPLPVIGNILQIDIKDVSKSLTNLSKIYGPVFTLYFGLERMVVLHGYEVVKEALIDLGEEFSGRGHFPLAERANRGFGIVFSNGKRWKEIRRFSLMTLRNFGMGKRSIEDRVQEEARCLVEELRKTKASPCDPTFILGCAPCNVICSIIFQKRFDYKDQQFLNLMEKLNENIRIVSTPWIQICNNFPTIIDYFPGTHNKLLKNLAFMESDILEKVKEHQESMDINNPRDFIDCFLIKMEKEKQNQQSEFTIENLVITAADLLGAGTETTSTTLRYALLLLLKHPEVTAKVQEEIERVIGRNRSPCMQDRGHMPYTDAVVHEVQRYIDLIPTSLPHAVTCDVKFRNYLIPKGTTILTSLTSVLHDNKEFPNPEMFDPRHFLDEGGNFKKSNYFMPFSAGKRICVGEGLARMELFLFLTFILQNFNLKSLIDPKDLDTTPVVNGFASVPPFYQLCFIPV
# assayOverview: Inhibition of CYP2C19-mediated [S]-mephenytoin 4′-hydroxylase in ultrapooled human liver microsomes
# Type: in vitro ADME
assayReadout: IC50

If you can, please state the reported IC50 value of CCCCCn1nc(C(=O)NC23CC4CC(CC(C4)C2)C3)c2ccccc21 .
> 100 µM

###

# targetSystem: UGT1A3 (Homo sapiens, UniProt P35503)
# Sequence (P35503 29-534): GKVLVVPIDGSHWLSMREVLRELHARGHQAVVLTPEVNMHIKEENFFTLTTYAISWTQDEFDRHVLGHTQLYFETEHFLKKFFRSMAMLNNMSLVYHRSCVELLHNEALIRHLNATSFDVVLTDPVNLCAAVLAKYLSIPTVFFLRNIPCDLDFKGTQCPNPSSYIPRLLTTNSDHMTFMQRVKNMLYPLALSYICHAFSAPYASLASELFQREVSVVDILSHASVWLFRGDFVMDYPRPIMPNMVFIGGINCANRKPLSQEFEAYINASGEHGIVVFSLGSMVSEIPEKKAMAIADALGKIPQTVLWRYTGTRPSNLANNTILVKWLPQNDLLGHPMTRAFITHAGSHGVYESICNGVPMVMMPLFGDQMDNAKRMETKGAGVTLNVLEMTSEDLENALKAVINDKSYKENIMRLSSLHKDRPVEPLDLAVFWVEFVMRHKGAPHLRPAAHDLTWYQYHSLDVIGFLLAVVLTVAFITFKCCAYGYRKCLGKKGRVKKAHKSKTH
# assayOverview: Inhibition of UGT1A3-catalyzed chenodeoxycholic acid 24-acyl-β-glucuronidation in human liver microsomes
# Format: in vitro ADME
# statedConditions: read-out: IC50 UGT1A3 chenodeoxycholic acid glucuronidation, with 30-min preincubation; pooled human liver microsomes; 30-min preincubation with UDPGA (○)
assayReadout: IC50

Please tell me: IC50 of CCCCCn1nc(C(=O)NC23CC4CC(CC(C4)C2)C3)c2ccccc21 [APINACA] , system UGT1A3 (Homo sapiens, UniProt P35503)?
> 100 µM

###

# targetSystem: UniProtKB P11509
# assayOverview: Inhibition of CYP2A6-mediated coumarin 7-hydroxylase in ultrapooled human liver microsomes
# Format: in vitro ADME
# statedConditions: read-out: IC50 (μM) With Preincubation, CYP2A6 coumarin 7-hydroxylase; ultrapooled human liver microsomes; 30-min preincubation with NADPH
# Procedure: The inhibitory potentials (IC50 values) of APINACA and typical CYP inhibitors on CYP 1A2, 2A6, 2C8, 2C9, 2C19, 2D6, and 3A4 activities in pooled human liver microsomes were evaluated following our previous method using a cocktail of CYP substrates, followed by LC–MS/MS [43]. […] After 3 min of preincubation at 37 °C, the reaction mixtures were incubated for 15 min at 37 °C with the addition of NADPH in a shaking water bath. […] Aliquots (5 μL) of the diluted supernatants were analyzed by LC–MS/MS. […]
assayReadout: IC50

Please tell me: IC50 of CCCCCn1nc(C(=O)NC23CC4CC(CC(C4)C2)C3)c2ccccc21 [APINACA] , system UniProtKB P11509?
> 100 µM

###

# targetSystem: CYP2C8 (Homo sapiens)
# Sequence (P10632 whole entry): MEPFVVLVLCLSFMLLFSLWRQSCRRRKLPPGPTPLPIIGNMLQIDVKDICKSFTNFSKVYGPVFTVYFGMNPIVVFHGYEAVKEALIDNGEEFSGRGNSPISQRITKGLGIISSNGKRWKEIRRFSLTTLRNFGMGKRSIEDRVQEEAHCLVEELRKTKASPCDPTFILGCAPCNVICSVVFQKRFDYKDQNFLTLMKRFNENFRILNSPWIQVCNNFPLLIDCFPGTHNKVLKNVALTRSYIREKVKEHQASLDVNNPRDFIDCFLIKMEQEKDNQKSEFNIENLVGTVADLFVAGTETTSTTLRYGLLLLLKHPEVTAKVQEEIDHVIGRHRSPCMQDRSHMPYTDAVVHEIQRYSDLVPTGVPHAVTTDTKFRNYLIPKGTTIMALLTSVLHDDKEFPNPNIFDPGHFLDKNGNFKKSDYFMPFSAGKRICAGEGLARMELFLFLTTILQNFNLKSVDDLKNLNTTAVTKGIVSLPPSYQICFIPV
# assayOverview: Inhibition of CYP2C8-catalyzed amodiaquine N-deethylase in ultrapooled human liver microsomes
# Type: in vitro ADME
assayReadout: IC50

Please tell me: IC50 of CCCCCn1nc(C(=O)NC23CC4CC(CC(C4)C2)C3)c2ccccc21 [APINACA] , system CYP2C8 (Homo sapiens)?
> 100 µM

###

# targetSystem: UGT1A1 (Homo sapiens)
# Construct: […]; tissue Corning Life Sciences
# Sequence (P22309 26-533): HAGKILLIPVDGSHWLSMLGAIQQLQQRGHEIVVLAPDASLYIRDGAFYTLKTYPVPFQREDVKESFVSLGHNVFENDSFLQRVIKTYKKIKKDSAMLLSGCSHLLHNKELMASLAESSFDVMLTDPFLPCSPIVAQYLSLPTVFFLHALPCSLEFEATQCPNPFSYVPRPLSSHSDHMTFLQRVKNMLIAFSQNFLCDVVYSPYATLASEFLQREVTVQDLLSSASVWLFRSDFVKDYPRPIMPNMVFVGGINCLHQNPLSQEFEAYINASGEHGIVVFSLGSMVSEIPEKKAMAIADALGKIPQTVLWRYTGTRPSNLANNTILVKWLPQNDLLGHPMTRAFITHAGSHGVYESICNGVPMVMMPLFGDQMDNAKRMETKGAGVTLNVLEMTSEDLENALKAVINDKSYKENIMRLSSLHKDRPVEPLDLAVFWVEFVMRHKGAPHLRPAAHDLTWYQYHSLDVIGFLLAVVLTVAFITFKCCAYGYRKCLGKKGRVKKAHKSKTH
# assayOverview: biochemical
# Assay type: in vitro ADME
# statedConditions: read-out: IC50 UGT1A1 SN-38 glucuronidation, with 30-min preincubation; pooled human liver microsomes; 30-min preincubation with UDPGA (○)
assayReadout: IC50

If you can, please state the reported IC50 value of CCCCCn1nc(C(=O)NC23CC4CC(CC(C4)C2)C3)c2ccccc21 .
> 100 µM

Data provenance: paper PMC6720883
